The measured values listed here are drawn from the supplement of paper PMC10567573.

B1: NP_015628.1 (parent)
chain: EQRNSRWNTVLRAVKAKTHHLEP

Variants of: B1
Experiment: protein stability index of a GFP-peptide fusion (GPS, HEK-293T) (PSI 1-6); higher = more stable;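 note: lentivirally expressed fusion library, cells FACS-sorted into six equal-sized GFP/DsRed ratio bins, PSI computed from sequencing read fractions per bin weighted by bin number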
Conditions: c terminus: native
Assay Metric: protein stability index
The answer should be written as a number, with no unit following it.

1) L11N 4.51
2) T9R 4.1
3) V14I 3.37
4) R12K 2.97
5) E1Q 3.13
6) L11I 2.51
7) R3W 2.7
8) A16H 2.98

Turning to the following variant.
Which measured protein stability index value corresponds to L11C ?
2.47
